- Target: T1, NR4A2 327-598 Hormone_recep (domain begin residue: 327, domain end residue: 598), P43354
- T1 chain: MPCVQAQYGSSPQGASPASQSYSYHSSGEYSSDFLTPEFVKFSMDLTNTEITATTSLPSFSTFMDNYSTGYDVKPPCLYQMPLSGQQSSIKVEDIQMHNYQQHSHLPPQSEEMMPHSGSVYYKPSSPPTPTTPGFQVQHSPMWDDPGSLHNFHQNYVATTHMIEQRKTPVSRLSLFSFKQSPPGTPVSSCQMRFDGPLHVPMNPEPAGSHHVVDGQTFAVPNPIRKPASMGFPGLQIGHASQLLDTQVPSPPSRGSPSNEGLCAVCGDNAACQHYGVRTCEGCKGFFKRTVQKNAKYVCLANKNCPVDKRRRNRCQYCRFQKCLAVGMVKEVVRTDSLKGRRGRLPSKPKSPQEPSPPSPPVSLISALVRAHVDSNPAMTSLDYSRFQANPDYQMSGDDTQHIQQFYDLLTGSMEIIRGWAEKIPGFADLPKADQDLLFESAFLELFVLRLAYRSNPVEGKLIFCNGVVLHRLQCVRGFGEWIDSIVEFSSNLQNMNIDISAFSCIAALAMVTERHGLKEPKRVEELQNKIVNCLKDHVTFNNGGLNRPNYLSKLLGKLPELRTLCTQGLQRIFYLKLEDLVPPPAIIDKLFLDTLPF
- Test Description: phage ELISA signal ratio (GST-PRM binding over GST background); higher = stronger binding of peptide-phage to the PRM
# phage ELISA signal ratio annotations
Form rule: numeric answer, no unit written next to it.

Examples from the recorded data:
Binder: GWSPWYEGRGVDWMTW
phage ELISA signal ratio: 5.78
--
Binder: QWSVEPWWHEMVIQGI
phage ELISA signal ratio: 24.1
--
Binder: LNDSEQWFTWAYKYVD
phage ELISA signal ratio: 9.75

The binder listed as TMSLWPSSWDIITLNS shows phage ELISA signal ratio equal to 15

The binder listed as AFKQLMFHVIGEEYSV shows phage ELISA signal ratio equal to 30.5
